Biological target: αS fibrils (Homo sapiens)
Construct: made in house; host or cells: E. coli BL21 (DE3)
Assay: SPR binding to immobilized αS fibrils
Settings: pH 4.8; 1:1 kinetic binding model
Protocol: All work was carried out using Biacore T200 at 25 °C. CM5 chips were activated by flowing 0.01 M N-hydroxysuccinimide, 0.4 M […] at a flow rate of 10 µl min^−1 for 7 min over two lanes. Preformed αS or Aβ42 fibrils (derived from the endpoints of low seeded aggregation reactions) at a concentration of 1 µM in sodium acetate (10 mM, pH 4.0) were injected onto a single lane in 60 s bursts at 5 µl min^−1 until a response of 2,000 units was reached. […]
pKd: −log10 of the molar value.

Smiles representation: O=C1NN(c2ccc(F)cc2)C(=O)/C1=C/c1ccc(-c2ccc(Cl)c(C(=O)O)c2)o1
pKd: 7.17

----------
Molecular target: αS aggregation (surface-catalyzed secondary nucleation) (Homo sapiens)
Construct: made in house; host or cells: E. coli BL21 (DE3)
Assay: light seeded αS aggregation chemical kinetics assay (ThT), secondary nucleation
Type: biochemical
Conditions: 1/t1/2 fitted to a Hill slope; 10 µM αS, 25 nM seeds, pH 4.8, 37 °C; read-out: KIC50 (concentration at which t1/2 is increased by 50% with respect to the control)
pIC50: −log10 of the molar value.

Smiles representation: O=C1NN(c2ccc(F)cc2)C(=O)/C1=C/c1ccc(-c2ccc(Cl)c(C(=O)O)c2)o1
pIC50: 6.28

----------
Biological target: αS aggregation (surface-catalyzed secondary nucleation) (Homo sapiens, UniProt P37840)
Construct: made in house; host or cells: E. coli BL21 (DE3)
Test: light seeded αS aggregation chemical kinetics assay (ThT), secondary nucleation
Format: biochemical
Details: extrapolated from Hill fit of 1/t1/2; read-out: extrapolated KIC50
pIC50: −log10 of the molar value.

Compound: O=C1NN(c2ccccc2)C(=O)C1=Cc1coc2ccccc2c1=O [molecule 69]
pIC50: 4.74

----------
Molecular target: αS fibrils (Homo sapiens)
Construct: made in house; host or cells: E. coli BL21 (DE3)
Test: SPR binding to immobilized αS fibrils
Conditions: pH 8; 1:1 kinetic binding model
pKd: −log10 of the molar value.
Experimental readout: pKd

Smiles representation: O=C1NN(c2ccc(F)cc2)C(=O)/C1=C/c1ccc(-c2ccc(Cl)c(C(=O)O)c2)o1
Quantitative result: 7.89
